src = PubChem BioAssay

Listed below: z-score values for each entry.
- Assay Remarks: E. coli growth modulation, two-sided OD650, primary screen, E. coli filamentation project, strain DRC41, 24 h (AID 1093);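 note: MC1000 strain lacking acrAB efflux and sulA so SOS filamentation is blocked; test concentration not given here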
- Measurement Setup: OD650, 24 h, higher = more signal, called active from +8 up or from −8 down
Give your answer as a number; write no unit.

Qu. Name the reported z-score value associated with the compound C[C@H]1C2[C@H](Cc3ccccc3)NC(=O)[C@]23C(=O)N[C@H](Cc2ccccc2)C(=O)N2CCC[C@H]2C(=O)NC/C=C\C/C=C/C3[C@@H]2O[C@]12C (stereo partly drawn)
Ans. 0.132

Others:
Qu. May I ask what z-score has been recorded for CC(C)C[C@@H]1NC(=O)[C@H](C(C)C)NC(=O)[C@@]23C(=O)N[C@@H](Cc4ccccc4)C2[C@H](C)[C@@]2(C)O[C@H]2C3/C=C/CC/C=C/CNC1=O (stereo partly drawn) ?
Ans. -0.215

Qu. # iterate: O=C1C[C@@](C(=O)NCCN2CCOCC2)(c2ccc([N+](=O)[O-])cc2)[C@@H](c2ccc(CO)cc2I)N1CC12CC3CC(CC(C3)C1)C2
Ans. -0.981
